System: E. coli 2026
Assay: Antibacterial microtitration MIC, E. coli 2026
Format: cell-based
Details: Escherichia coli; Gram Negative Bacteria; strain 2026; read-out: Minimum Inhibitory Concentrations E. coli 2026
MEASUREMENT_KIND: MIC
Respond with the figure and its unit, in that order.

Lookup result for Cc1c(N2C[C@H](CNCCC#N)[C@@H](C)C2)c(F)cc2c(=O)n(N)c(=O)n(C3CC3)c12 (stereo in doubt) ; measured MIC: 8 µg/mL

Lookup result for COc1c(N2C[C@@H]3CCC(NCCC#N)[C@@H]3C2)c(F)cc2c(=O)n(N)c(=O)n(C3CC3)c12 (some centres unmarked) [drawing 398] ; measured MIC: 64 µg/mL

Lookup result for Cc1c(N2C[C@@H](CNCCC#N)[C@H](C)C2)c(F)cc2c(=O)n(N)c(=O)n(C3CC3)c12 (stereo in doubt) ; measured MIC: 8 µg/mL

Lookup result for Cc1c(N2C[C@H](CNCCC#N)[C@@H](F)C2)c(F)cc2c(=O)n(N)c(=O)n(C3CC3)c12 (racemic) [drawing 397] ; measured MIC: 32 µg/mL

Attention now turns to another entry.
Lookup result for Cc1c(N2CC[C@@H](C(NCCC#N)c3ncco3)C2)c(F)cc2c(=O)n(N)c(=O)n(C3CC3)c12 (some centres unmarked) [drawing 399] ; measured MIC: 16 µg/mL

###

Test system: S pyogenes C203
Assay: Antibacterial microtitration MIC, S pyogenes C203
Format: cell-based
Conditions: Gram Positive Bacteria; strain C203; read-out: Minimum Inhibitory Concentrations S pyogenes C203
Experimental: Test A—Antibacterial Assays The compounds of the present invention were tested against an assortment of Gram-negative and Gram-positive organisms using standard microtitration techniques (Cohen et. al., Antimicrob., 1985; 28:766; Heifetz, et. al., Antimicrob., 1974; 6:124).
We begin with a simple list: items and their reported MIC.
Report the figure in µg/mL without appending any unit label.

Worked cases, answers included:
Lookup result for Cc1c(N2CC[C@H]([C@H](N)CC#N)C2)c(F)cc2c(=O)n(N)c(=O)n(C3CC3)c12 (racemic) [drawing 406] ; measured MIC: 0.5

Lookup result for COc1c(N2CC[C@@H]([C@H](C)NCCC#N)C2)c(F)cc2c(=O)[nH]c(=O)n(C3CC3)c12 (single isomer, unassigned) [drawing 418] ; measured MIC: 0.5

Attention now turns to another entry.
Lookup result for Cc1c(N2CCC(C(N)C(C)(C)C#N)C2)c(F)cc2c(=O)n(N)c(=O)n(C3CC3)c12 (stereo not drawn) [drawing 419] ; measured MIC: 32
